System: Citrobacter freundii ATCC 8090 | Read-out: MIC
Enter your answer as a number in µg/mL; do not include the unit.

Query block: Item CC[n+]1c(N)cc(N)nc1SCC1=C(C(=O)[O-])N2C(=O)C(NC(=O)/C(=N\O[C@@H](C)C(=O)O)c3csc(N)n3)[C@H]2SC1 (stereo partly drawn) with Citrobacter freundii ATCC 8090 - MIC?
Result block: 0.031

Query block: Lookup CCC[n+]1c(N)cc(N)nc1SCC1=C(C(=O)[O-])N2C(=O)C(NC(=O)/C(=N\O[C@@H](C)C(=O)O)c3csc(N)n3)[C@H]2SC1 (stereo partly drawn)
Result block: 0.031

Query block: Can you check C[C@@H](O/N=C(\C(=O)NC1C(=O)N2C(C(=O)[O-])=C(CSc3nc(N)cc(N)[n+]3-c3ccccc3)CSC12)c1csc(N)n1)C(=O)O (stereo partly drawn) next?
Result block: 0.13

Query block: Also, Cc1c(N)nc(SCC2=C(C(=O)[O-])N3C(=O)C(NC(=O)/C(=N\O[C@H](C)C(=O)O)c4csc(N)n4)[C@H]3SC2)[n+](C)c1N (stereo partly drawn) please.
Result block: 0.063

Query block: Same read-out for Cc1c(N)nc(SCC2=C(C(=O)[O-])N3C(=O)C(NC(=O)/C(=N\O[C@@H](C)C(=O)O)c4csc(N)n4)C3SC2)[n+](C)c1N (stereo partly drawn) ?
Result block: 0.016

Query block: // next record CCC[n+]1c(N)cc(N)nc1SCC1=C(C(=O)[O-])N2C(=O)C(NC(=O)/C(=N\O[C@H](C)C(=O)O)c3csc(N)n3)[C@H]2SC1 (stereo partly drawn)
Result block: 0.063
